Where these numbers come from: patent US8853193B2

test-system: human Mnk2a (Homo sapiens (Human))
Sequence (Q9HBH9 whole entry): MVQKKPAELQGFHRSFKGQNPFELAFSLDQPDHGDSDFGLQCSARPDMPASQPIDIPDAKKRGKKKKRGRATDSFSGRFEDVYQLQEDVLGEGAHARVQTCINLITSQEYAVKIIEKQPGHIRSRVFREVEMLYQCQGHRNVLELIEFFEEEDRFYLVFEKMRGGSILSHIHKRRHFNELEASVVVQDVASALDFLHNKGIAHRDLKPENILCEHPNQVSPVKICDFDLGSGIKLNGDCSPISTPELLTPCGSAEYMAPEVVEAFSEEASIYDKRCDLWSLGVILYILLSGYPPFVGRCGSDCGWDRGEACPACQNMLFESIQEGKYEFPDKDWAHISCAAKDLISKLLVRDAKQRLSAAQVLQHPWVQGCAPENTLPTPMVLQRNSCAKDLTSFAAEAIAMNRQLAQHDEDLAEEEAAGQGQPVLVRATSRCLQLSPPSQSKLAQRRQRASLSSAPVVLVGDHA
assay: Mnk2a in vitro kinase assay (indirect competitive fluorescence polarization)
condition-details: pre-activated GST-Mnk2a 2.5 nM, 20 μM ATP, 30 μM substrate peptide; read-out: MNK2 IC50
Experimental: Inhibitory potency of compounds against Mnk1, Mnk2a and other kinases was assessed with assays based on a format known to those skilled in the art as the indirect (competitive) fluorescence polarization. The assay detection system comprises a small fluorophore-labeled phospho-peptide (termed ligand) bound to a phospho-specific antibody. […] In brief, the open reading frames of human Mnk1 and Mnk2a were amplified from cDNA using the forward/reverse primer pairs […]
pIC50: −log10 of the molar value. Structures can show the parent of a compound that is named as a salt.
observed-property: pIC50

COC(=O)c1sc2ncnc(Nc3ccc(F)cc3OC(C)CCNC(=O)C(C)C)c2c1C (stereo not shown)
6.17
COCC(C)Oc1cc(F)ccc1Nc1ncnc2sc(C(N)=O)c(C)c12 (stereo not shown)
8.10
COC(=O)c1sc2ncnc(Nc3ccc(F)cc3OC(CN)CNS(C)(=O)=O)c2c1C (stereo not shown) [Compound 19-2, trifluoroacetate]
5.93

[1] Cc1c(C(=O)NCCCN(C)C)sc2ncnc(Nc3cccnc3OC(C)CCN)c12 (stereo not shown) [Compound 16-3, bis(2,2,2-trifluoroacetate)]
[2] Cc1c(C(=O)O)sc2ncnc(Nc3cccnc3OCC(C)F)c12 (stereo not shown)
[3] CCCCNC(=O)NCCC(C)Oc1cc(F)ccc1Nc1ncnc2sc(C(=O)OC)c(C)c12 (stereo not shown)
[4] Cc1c(C(N)=O)sc2ncnc(Nc3cccnc3OCC3(CC#N)CC3)c12
[5] Cc1c(C(N)=O)sc2ncnc(Nc3ccc(F)cc3O[C@@H](C)CNC(=O)OC(C)(C)C)c12 (racemic)
Inquiry: Hi! Can you put these in order of pIC50, lowest number first? Would you mind listing the labels in the order asked for?
Reply text: 3, 5, 1, 2, 4
(3: 6.05, 5: 6.79, 1: 7.13, 2: 7.48, 4: 7.80)

###

test-system: human Mnk2a (Homo sapiens (Human))
assay: Mnk2a in vitro kinase assay (indirect competitive fluorescence polarization)
condition-details: pre-activated GST-Mnk2a 2.5 nM, 20 μM ATP, 30 μM substrate peptide; read-out: MNK2 IC50
observed-property: IC50 (nM)

Cc1c(C(=O)NCCCCO)sc2ncnc(Nc3cccnc3OC(C)C)c12 [Compound 36-2]
42
CCNC(=O)C(C)Oc1cc(F)ccc1Nc1ncnc2sc(C(=O)NC)c(C)c12 (stereo not drawn) [Compound 31-6]
13

[A] COC(=O)c1sc2ncnc(Nc3ccc(F)cc3OC(C)CNS(=O)(=O)C(C)C)c2c1C (stereo not drawn) [Compound 3-2]
[B] Cc1c(C(=O)NCCO)sc2ncnc(Nc3ccc(F)cc3OCC(F)F)c12 [Compound 32-18]
[C] COC(=O)c1sc2ncnc(Nc3ccc(F)cc3OC(C)CC(C)(C)O)c2c1C (stereo not drawn) [Compound 20-1]
Inquiry: Highest IC50 first, then in falling order down to the smallest. Hello, could you send the labels back in the order asked? Thank you.
Reply text: A, C, B

###

test-system: human Mnk2a (Homo sapiens (Human))
assay: Mnk2a in vitro kinase assay (indirect competitive fluorescence polarization)
condition-details: pre-activated GST-Mnk2a 2.5 nM, 20 μM ATP, 30 μM substrate peptide; read-out: MNK2 IC50
observed-property: IC50 (nM)

// known answers, use as guide
COC(=O)c1sc2ncnc(Nc3ccc(F)cc3OC(C)CNC(C)=O)c2c1C (centres unmarked) [Compound 3-4]
261
Cc1c(C(N)=O)sc2ncnc(Nc3ccc(F)cc3OCC3CC3(F)F)c12 (centres unmarked) [Compound 32-21]
8
Cc1c(C(=O)NCCCN2CCCC2)sc2ncnc(Nc3ccc(F)cc3OC(CF)CF)c12 [Compound 23-10]
7
Cc1c(C(=O)NCCCN2CCCC2)sc2ncnc(Nc3ccc(C#N)cc3OC(CF)CF)c12 [Compound 48]
12
Cc1c(C(=O)NCC(C)O)sc2ncnc(Nc3cccnc3OC(C)C)c12 (centres unmarked) [Compound 36-13]
54

[P] COC(=O)c1sc2ncnc(Nc3ccc(F)cc3OC(CF)CF)c2c1C [Compound 23-1]
[Q] Cc1c(C(N)=O)sc2ncnc(Nc3ccc(F)cc3OC(C)C(C)(C)O)c12 (centres unmarked) [Compound 60]
[R] CCNC(=O)C(C)Oc1cc(F)ccc1Nc1ncnc2sc(C(N)=O)c(C)c12 (centres unmarked) [Compound 31-5]
[S] COC(=O)c1sc2ncnc(Nc3ccc(F)cc3OC(C)C(=O)NCCN(C)C)c2c1C (centres unmarked) [Compound 62]
[T] Cc1c(C(N)=O)sc2ncnc(Nc3cccnc3OC(C)CCNS(C)(=O)=O)c12 (centres unmarked) [Compound 45]
Inquiry: Rank descending by IC50. Write the labels in rank order as requested.
Reply text: S, P, Q, T, R
(S: 267 nM, P: 78 nM, Q: 37 nM, T: 20 nM, R: 11 nM)

[a] Cc1c(C(=O)NCCCN(C)C)sc2ncnc(Nc3ccc(F)cc3OCCO)c12 [Compound 32-34]
[b] Cc1c(C(=O)NCCCN(C)C)sc2ncnc(Nc3ccc(F)cc3OCCC(F)(F)F)c12 [Compound 32-38]
[c] Cc1c(C(N)=O)sc2ncnc(Nc3cccnc3OC(C)C(F)(F)F)c12 (centres unmarked) [Compound 21-3]
Inquiry: # ascending order, key=IC50 # format: label list in the order the request specifies
Reply text: c, b, a
(c: 11 nM, b: 26 nM, a: 69 nM)
